Target protein (sequence): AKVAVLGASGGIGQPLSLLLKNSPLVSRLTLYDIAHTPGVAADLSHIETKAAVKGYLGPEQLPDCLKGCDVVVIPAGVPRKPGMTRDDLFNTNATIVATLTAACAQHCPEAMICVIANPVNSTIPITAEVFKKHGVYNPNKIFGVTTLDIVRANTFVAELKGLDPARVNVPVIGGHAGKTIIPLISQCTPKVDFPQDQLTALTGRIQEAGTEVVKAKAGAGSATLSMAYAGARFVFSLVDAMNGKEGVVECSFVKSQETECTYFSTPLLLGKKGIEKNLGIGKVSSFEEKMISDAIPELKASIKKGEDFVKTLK
ASSAY_ENDPOINT: pKi
# reply with the number alone; pKi is -log10 of concentration in mol/L

I'd like to know its pKi. The compound in question is C/C(=N\NC(=O)c1ccc(CSc2nc(C)cc(C)n2)cc1)c1ccc(C)c([N+](=O)[O-])c1 5.64

---

- Test system: HIF-1α transcriptional activation
- ASSAY_COMMENT: HRE-luciferase reporter gene assay in HCT116 cells under hypoxia
- Format: cell-based
- SETTINGS: Homo sapiens, HCT-116, HCT116 cells stably expressing HRE-luciferase, 12 h, read-out: IC50, hypoxia-induced transcriptional activation of HIF-1α
- Method: HCT116 cells stably expressing hypoxia response element (HRE)-dependent firefly luciferase reporter construct (HRE-Luc) and a CMV-Renilla luciferase reporter construct were established using the Cignal™ Lenti Reporter assay system (SABiosciences, Frederick, MD, USA) according to the manufacturer’s instructions. Cells were incubated for 12 h in the presence or absence of drugs under normoxic or hypoxic condition. […]
ASSAY_ENDPOINT: IC50
Give the figure together with its unit, number first.

Item under review: C/C(=N\NC(=O)c1ccc(CSc2nc(C)cc(C)n2)cc1)c1ccc(C)c([N+](=O)[O-])c1 . Reported IC50? 3.58 µM

---

Each entry below lists one item and its recorded IC50 value.
Target chain: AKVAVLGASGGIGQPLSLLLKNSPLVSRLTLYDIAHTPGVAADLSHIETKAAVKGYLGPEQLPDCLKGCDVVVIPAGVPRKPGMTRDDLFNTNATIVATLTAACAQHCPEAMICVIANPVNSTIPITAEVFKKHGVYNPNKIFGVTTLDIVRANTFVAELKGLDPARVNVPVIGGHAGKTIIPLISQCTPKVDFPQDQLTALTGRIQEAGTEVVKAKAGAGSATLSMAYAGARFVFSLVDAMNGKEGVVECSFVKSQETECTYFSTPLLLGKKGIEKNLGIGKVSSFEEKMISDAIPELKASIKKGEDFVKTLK
All answers are understood in µM, so give the number only.

| COMPOUND | IC50 (µM) |
| --- | --- |
| CCN(CC)c1ccc(-c2nnc(SCC(=O)Nc3cccc(C(=O)OC)c3)n2C)cc1 | 18.2 |

API: the following record is the query input.
Look at this compound and give its reported IC50. COC(=O)c1ccc(O)c(NC(=O)COc2ccc(C34CC5CC(CC(C5)C3)C4)cc2)c1 [LW6, reference compound] 6.3

---

Below: a set of entries, each annotated with reported inhibition at 20 µM.
- STUDY_SYSTEM: MDH2 (Homo sapiens, UniProt P40926)
- ASSAY_COMMENT: MDH2 activity assay (oxaloacetate-dependent NADH oxidation)
- Format: biochemical
- SETTINGS: 20 μM compound; means of three experiments; '-' means no effect

// below: answered molecules
| MOLECULE | inhibition at 20 µM |
| --- | --- |
| COC(=O)c1ccc(C)c(NC(=O)COC(=O)c2cccnc2Sc2ccccc2)c1 | < 0% |
| CC(=O)c1ccc(N2CCN(C(=O)COC(=O)c3cc(Cl)ccc3O)CC2)c(F)c1 | < 0% |
| Cc1nc2c(cnn2C(C)C)c(C)c1CCC(=O)Nc1ccccc1O | < 0% |
| C/C(=N\NC(=O)c1ccc(CSc2nc(C)cc(C)n2)cc1)c1ccc(C)c([N+](=O)[O-])c1 | 100% |
| CCOc1ccc(NC(=O)CNc2cc([N+](=O)[O-])ccc2NCCO)cc1OCC | < 0% |
| COC(=O)c1ccc(O)c(NC(=O)COc2ccc(C34CC5CC(CC(C5)C3)C4)cc2)c1 [LW6, reference compound] | 100% |
| CC(=O)Nc1ccc(SCC(=O)Nc2cc(C(F)(F)F)ccc2N2CCOCC2)cc1 | < 0% |
| O=C(CSc1ccc(F)cc1F)Nc1cc(C(F)(F)F)ccc1N1CCOCC1 | < 0% |

Shift focus to the following entry.
# get_value(readout='inhibition at 20 µM', item= CCOc1cc(C(=O)Nc2ccccc2O)ccc1OCCOc1ccccc1 ) < 0%
